Assay: physchem
Description: Ionization constant (pKa)
measured attribute: pKa
Output spec: single numeric token, no unit.

[[record]]
compound = "CNCCCC1c2ccccc2C=Cc2ccccc21 [PROTRIPTYLINE]"
measured_attribute = "pKa"
value_observed = 8.2

[[record]]
compound = "Cc1nnc2n1-c1sc(Br)cc1C(c1ccccc1Cl)=NC2 [BROTIZOLAM]"
measured_attribute = "pKa"
value_observed = 6.2

[[record]]
compound = "CC(CCc1ccc(O)cc1)NCCc1ccc(O)c(O)c1 (stereo not given) [DOBUTAMINE]"
measured_attribute = "pKa"
value_observed = 9.5

[[record]]
compound = "CC(C)(C)NC[C@H](O)COc1nsnc1N1CCOCC1 [TIMOLOL]"
measured_attribute = "pKa"
value_observed = 9.3

[[record]]
compound = "COc1ccc2c(c1)N(C[C@H](C)CN(C)C)c1ccccc1S2 [LEVOMEPROMAZINE]"
measured_attribute = "pKa"
value_observed = 9.2

[[record]]
compound = "COc1ccc(Cl)cc1C(=O)NCCc1ccc(S(=O)(=O)NC(=O)NC2CCCCC2)cc1 [GLYBURIDE]"
measured_attribute = "pKa"
value_observed = 5.3

[[record]]
compound = "O=C1NC(=O)C(c2ccccc2)(c2ccccc2)N1 [PHENYTOIN]"
measured_attribute = "pKa"
value_observed = 8

[[record]]
compound = "O=c1[nH]c2ccccc2n1C1CCN(CCCC(c2ccc(F)cc2)c2ccc(F)cc2)CC1 [PIMOZIDE]"
measured_attribute = "pKa"
value_observed = 7.3


Ask | Answer with the recorded pKa for the compound listed here: Oc1ccc(C(O)C2CCCCN2)cc1O (stereo not given) [RIMITEROL]
Reply | 9.9

Ask | Give the value of pKa reported for the following: COc1cc(N)c(Cl)cc1C(=O)NC1CCN(CCCOc2ccc(F)cc2)CC1OC (stereo not given) [CISAPRIDE]
Reply | 7.7

Ask | Consider the compound COC(=O)C1=C(C)NC(C)=C(C(=O)OCCN(C)Cc2ccccc2)C1c1cccc([N+](=O)[O-])c1 (stereo not given) [NICARDIPINE] and give its recorded pKa.
Reply | 7.6

Ask | Please indicate pKa recorded for CC(C)N(CCC(C(N)=O)(c1ccccc1)c1ccccn1)C(C)C (stereo not given) [DISOPYRAMIDE]
Reply | 10.4

Ask | Return the recorded pKa value; entry: CN1CCC[C@@H]1CCO[C@](C)(c1ccccc1)c1ccc(Cl)cc1 [CLEMASTINE]
Reply | 9.2

Ask | Let me know recorded pKa for CCCNC(=O)NS(=O)(=O)c1ccc(Cl)cc1 [CHLORPROPAMIDE] , thanks.
Reply | 5

Ask | Dear colleague, please send me the reported pKa for CN(CCCN1c2ccccc2CCc2ccccc21)CC(=O)c1ccc(Cl)cc1 [LOFEPRAMINE] when you can.
Reply | 6.7

Ask | Using the record for COCCCC/C(=N\OCCN)c1ccc(C(F)(F)F)cc1 [FLUVOXAMINE] , state its measured pKa.
Reply | 9.5

Ask | # return recorded pKa for input CCc1cccc2cc(C(O)CNC(C)(C)C)oc12 (stereo not given) [BUFURALOL]
Reply | 9

---

Test: physchem
Record y whenever pKa is at 7 or higher; record n when lower.

Here's what some known entries look like.
[[record]]
molecule = "Sc1ncnc2nc[nH]c12 [MERCAPTOPURINE ANHYDROUS]"
category = "y"

[[record]]
molecule = "CC(C)NCC(O)COc1cccc2[nH]ccc12 (stereo unspecified)"
category = "y"

[[record]]
molecule = "O=c1n(CCCN2CCN(c3cccc(Cl)c3)CC2)nc2ccccn12"
category = "n"

[[record]]
molecule = "CC[C@H]1[C@@H]2C[C@H]3[C@@H]4N(C)c5ccccc5[C@]45C[C@@H]([C@@H]2[C@H]5O)N3[C@@H]1O"
category = "n"

[[record]]
molecule = "CNC[C@H](O)c1cccc(O)c1"
category = "y"


Ask | pKa >= 7 for C=CCOc1ccccc1OCC(O)CNC(C)C (stereo unspecified) ?
Reply | y

Ask | Does the reported pKa for CC(C)NCC(O)c1ccc(O)c(O)c1 (stereo unspecified) fall at or above the 7 mark?
Reply | y

Ask | Is pKa at least 7? Consider Clc1cccc(Cl)c1N=C1NCCN1
Reply | y

Ask | Record Nc1nc(N)c2nc(-c3ccccc3)c(N)nc2n1 ; criterion: pKa no lower than 7. Met?
Reply | n

Ask | Could you verify whether the entry CCc1cccc2c3c([nH]c12)C(CC)(CC(=O)O)OCC3 (stereo unspecified) shows pKa of no less than 7?
Reply | n

Ask | Is reported pKa greater than or equal to 7 here: CN(C/C=C/C#CC(C)(C)C)Cc1cccc2ccccc12
Reply | y
